src = patent US20150158862A1

- EXPERIMENTAL DETAILS: in vitro
- Format: cell-based
- CONDITION INFO: human
READOUT: CC50 at 3 days

Illustrative cases are given below, each with its answer.
{"COMPOUND": "O=c1n(Cc2cc3cc(Cl)ccc3n2CCCC(F)(F)F)c2cncc(Cl)c2n1CC(F)(F)F [Compound P2]", "READOUT": "CC50 at 3 days", "RESULT": "> 100 µM"}
{"COMPOUND": "CS(=O)(=O)CCCn1c(Cn2c(=O)n(CC(F)(F)F)c3c(Cl)cccc32)cc2cc(Cl)ccc21 [Compound P1]", "READOUT": "CC50 at 3 days", "RESULT": "> 100 µM"}
{"COMPOUND": "Cc1cccc2c1n(C1CC1)c(=O)n2Cc1nc2nc(Cl)ccc2n1CCC(C)C", "READOUT": "CC50 at 3 days", "RESULT": "> 50 µM"}
{"COMPOUND": "CS(=O)(=O)CCCn1c(Cn2c(=O)n(C3CC3)c3c(Cl)cncc32)cc2cc(Cl)ccc21", "READOUT": "CC50 at 3 days", "RESULT": "> 100 µM"}

Give the reported value of CC50 at 3 days for this record: O=c1n(Cc2cc3cc(Cl)ccc3n2CCCC(F)(F)F)c2cccc(Cl)c2n1CC(F)(F)F > 100 µM

Give the reported value of CC50 at 3 days for this record: Cc1cncc2c1n(C1CC1)c(=O)n2Cc1cc2cc(Cl)ccc2n1CCCS(C)(=O)=O > 100 µM

Give the reported value of CC50 at 3 days for this record: Cc1cncc2c1n(CC(F)(F)F)c(=O)n2Cc1cc2cc(Cl)ccc2n1CCCS(C)(=O)=O 50.1 µM

Give the reported value of CC50 at 3 days for this record: CC(C)CCn1c(Cn2c(=O)n(C3CC3)c3c(Cl)cccc32)nc2nc(Cl)ccc21 > 25 µM

Give the reported value of CC50 at 3 days for this record: Cc1cccc2c1n(C1CC1)c(=O)n2Cc1cc2nc(Cl)ccc2n1CCCC(F)(F)F 12.6 µM

Give the reported value of CC50 at 3 days for this record: CS(=O)(=O)CCCn1c(Cn2c(=O)n(C3CC3)c3c(Cl)cccc32)cc2cc(Cl)ccc21 31.6 µM

Give the reported value of CC50 at 3 days for this record: CS(=O)(=O)CCCn1c(Cn2c(=O)n(CC(F)(F)F)c3c(Cl)cncc32)cc2cc(Cl)ccc21 31.6 µM

###

- Test system: rgRSV224 virus
- EXPERIMENTAL DETAILS: Antiviral activity: inhibition of GFP expression of rgRSV224 virus in HeLa cells
- Assay type: cell-based, respiratory syncytial virus (RSV)
- CONDITION INFO: human respiratory syncytial virus, 72 h, read-out: WT activity EC50
- Description: Black 96-well clear-bottom microtiter plates (Corning, Amsterdam, The Netherlands) were filled in duplicate using a customized robot system with serial 4-fold dilutions of compound in a final volume of 50 μl culture medium [RPMI medium without phenol red, 10% FBS, 0.04% gentamycin (50 mg/ml) and 0.5% DMSO]. […] Three days post-virus exposure, viral replication was quantified by measuring GFP expression in the cells by a MSM laser microscope (Tibotec, Beerse, Belgium). […]
Reported log10 EC50 values for the following compounds.
Annotation: log10 of EC50, nM basis.

Illustrative cases are given below, each with its answer.
{"COMPOUND": "O=c1n(Cc2cc3cc(Cl)ccc3n2CCCC(F)(F)F)c2cncc(Cl)c2n1CC(F)(F)F [Compound P2]", "log10 EC50": 2.00}
{"COMPOUND": "CC(C)CCn1c(Cn2c(=O)n(C3CC3)c3c(Cl)cccc32)nc2nc(Cl)ccc21 [Compound P9]", "log10 EC50": 2.90}
{"COMPOUND": "Cc1cccc2c1n(C1CC1)c(=O)n2Cc1cc2nc(Cl)ccc2n1CCCC(F)(F)F [Compound P11]", "log10 EC50": 3.80}
{"COMPOUND": "Cc1cncc2c1n(CC(F)(F)F)c(=O)n2Cc1cc2cc(Cl)ccc2n1CCCS(C)(=O)=O [Compound P8]", "log10 EC50": 2.00}

Continue with the compound presented below.
Report log10 EC50 from rgRSV224 virus testing of CS(=O)(=O)CCCn1c(Cn2c(=O)n(C3CC3)c3c(Cl)cncc32)cc2cc(Cl)ccc21 [Compound P3] 1.30

###

- System: rgRSV224 virus
- EXPERIMENTAL DETAILS: Antiviral activity: inhibition of GFP expression of rgRSV224 virus in HeLa cells
- Type: cell-based, respiratory syncytial virus (RSV)
- CONDITION INFO: human respiratory syncytial virus, 72 h, read-out: WT activity EC50
READOUT: pEC50
// pEC50 is dimensionless: -log10 of concentration (M)

{"COMPOUND": "CS(=O)(=O)CCCn1c(Cn2c(=O)n(CC(F)(F)F)c3c(Cl)cccc32)cc2cc(Cl)ccc21 [Compound P1]", "pEC50": 6.40}

Give the reported value of pEC50 for this record: CS(=O)(=O)CCCn1c(Cn2c(=O)n(C3CC3)c3c(Cl)cccc32)cc2cc(Cl)ccc21 6.20

Give the reported value of pEC50 for this record: Cc1cncc2c1n(C1CC1)c(=O)n2Cc1cc2cc(Cl)ccc2n1CCCS(C)(=O)=O 7.70

Give the reported value of pEC50 for this record: Cc1cccc2c1n(C1CC1)c(=O)n2Cc1nc2nc(Cl)ccc2n1CCC(C)C 6.40

Give the reported value of pEC50 for this record: CS(=O)(=O)CCCn1c(Cn2c(=O)n(CC(F)(F)F)c3c(Cl)cncc32)cc2cc(Cl)ccc21 7.60
